Target: BCL6 (Homo sapiens, UniProt P41182)
Construct: endogenous in cells; host or cells: T47D breast cancer epithelial cells
Experiment: Immunofluorescence protocol for high content imaging of BCL6 (degradation) in T47D cells, 3 days compound treatment
Format: cell-based
Conditions: T47D cells, 3 days compound treatment, read-out: Mean DC50 (nM)* category
Overview of recorded DC50 for various molecules

For orientation, consider the following solved cases.
CNC(=O)COc1cc2cc(Nc3nc(N4CCC(O[C@H]5CC[C@@H](N6CCC(c7ccc8c(c7)C(=O)N(C7CCC(=O)NC7=O)C8=O)CC6)CC5)CC4)ncc3Cl)ccc2n(C(C)C)c1=O (some centres unmarked) [Compound 110]	≥ 100 nM
CNC(=O)COc1cc2cc(Nc3nc(N4CCC(CN5CC6(CCN(c7ccc8c(c7)C(=O)N(C7CCC(=O)NC7=O)C8=O)CC6(F)F)C5)CC4)ncc3Cl)ccc2n(C(C)C)c1=O (centres unmarked) [Compound 135]	< 10 nM
CNC(=O)COc1cc2cc(Nc3nc(N4CCC5(CCN(CC6(F)CCN(c7cccc8c7CN(C7CCC(=O)NC7=O)C8=O)CC6)CC5)CC4)ncc3Cl)ccc2n(C(C)C)c1=O (centres unmarked) [Compound 95]	< 10 nM
CC[C@@H]1CN([C@H]2C[C@H](OC3CCN(c4ncc(Cl)c(Nc5ccc6c(c5)cc(OCC(=O)NC)c(=O)n6C(C)C)n4)CC3)C2)CCN1c1ccc2c(c1Cl)CN(C1CCC(=O)NC1=O)C2=O (some centres unmarked) [Compound 205]	< 10 nM

Prompt: I'm curious: which DC50 was measured for CNC(=O)COc1cc2cc(Nc3nc(N4CCN(CC5C6CN(c7cccc8c7C(=O)N(C7CCC(=O)NC7=O)C8=O)CC56)CC4)ncc3Cl)ccc2n(C(C)C)c1=O (centres unmarked) [Compound 156] tested on BCL6 (Homo sapiens, UniProt P41182)?
Completion: < 10 nM
